system_under_test: Betaine--homocysteine S-methyltransferase 1 (Homo sapiens) (UniProt Q93088)
Sequence (Q93088 whole entry): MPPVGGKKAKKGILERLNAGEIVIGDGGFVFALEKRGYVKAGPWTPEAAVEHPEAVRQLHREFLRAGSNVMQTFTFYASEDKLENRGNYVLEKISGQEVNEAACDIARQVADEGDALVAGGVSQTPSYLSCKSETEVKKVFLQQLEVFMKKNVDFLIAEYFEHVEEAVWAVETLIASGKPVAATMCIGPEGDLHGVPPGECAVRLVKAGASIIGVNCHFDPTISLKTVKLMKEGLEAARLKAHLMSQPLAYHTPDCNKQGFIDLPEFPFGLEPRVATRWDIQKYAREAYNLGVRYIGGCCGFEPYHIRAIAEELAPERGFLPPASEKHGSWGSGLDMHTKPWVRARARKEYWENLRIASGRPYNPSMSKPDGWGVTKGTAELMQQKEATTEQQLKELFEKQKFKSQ
assay_details: Inhibition of human recombinant BHMT using N-methyl-[14C]-betaine/D,L-homocysteine as substrate at 20 uM after 30 mins by scintiillation counting analysis
Measured inhibition of individual entries
experimental_readout: inhibition (%)

INSERT INTO assay_data (molecule, system_under_test, units_label, observed_value) VALUES
  ('CS(=O)(=O)NC(=O)C(N)CCSCCCCC(=O)O (racemic)', 'Betaine--homocysteine S-methyltransferase 1 (Homo sapiens) (UniProt Q93088)', '%', 67),
  ('N#CC(N)CCSCCCCC(=O)O (racemic)', 'Betaine--homocysteine S-methyltransferase 1 (Homo sapiens) (UniProt Q93088)', '%', 9),
  ('NNC(=O)C(N)CCSCCCCC(=O)O (racemic)', 'Betaine--homocysteine S-methyltransferase 1 (Homo sapiens) (UniProt Q93088)', '%', 28),
  ('O=C(O)CCCCS[C@@H]1CN[C@H](C(=O)O)C1', 'Betaine--homocysteine S-methyltransferase 1 (Homo sapiens) (UniProt Q93088)', '%', 24),
  ('CNC(=O)C(N)CCSCCCCC(=O)O (racemic)', 'Betaine--homocysteine S-methyltransferase 1 (Homo sapiens) (UniProt Q93088)', '%', 8),
  ('CC(C)(CCSCCC(N)[PH](=O)O)CC(=O)O (racemic)', 'Betaine--homocysteine S-methyltransferase 1 (Homo sapiens) (UniProt Q93088)', '%', 99),
  ('NC(CCSCCCCC(=O)O)[PH](=O)O (racemic)', 'Betaine--homocysteine S-methyltransferase 1 (Homo sapiens) (UniProt Q93088)', '%', 95);
